Source of measurements: ChEMBL document CHEMBL4613250

# TEST METHOD NOTES: Half life in Wistar Han rat at 1 mg/kg, iv after 0.5 to 24 hrs by HPLC-MS/MS analysis
# Assay type: ADME, organism-based
# COND: in vivo
ATTRIBUTE MEASURED: half-life (h)

[[record]]
smiles_data = "CCO[C@H]1CCN(Cc2c(OC)cc(C)c3[nH]ccc23)[C@H](c2ccc(C(=O)O)cc2)C1.Cl"
attribute_measured = "half-life"
unit_label = "h"
value_observed = 7


---

# Species: Mus musculus
# TEST METHOD NOTES: animal or person
# COND: C57BL/6, po, 8 h, read-out: INH
ATTRIBUTE MEASURED: inhibition in vivo at 30 mg/kg

[[record]]
compound = "CCO[C@H]1CCN(Cc2c(C)cc(C)c3[nH]ccc23)[C@H](c2ccc(C(=O)O)cc2)C1"
value_observed = "47%"

[[record]]
compound = "CCO[C@H]1CCN(Cc2c(OC)cc(C)c3[nH]ccc23)[C@H](c2ccc(C(=O)O)cc2)C1 [IPTACOPAN]"
value_observed = "83%"

[[record]]
compound = "CO[C@H]1CCN(Cc2c(C3CC3)cc(C)c3[nH]ccc23)[C@H](c2ccc(C(=O)O)cc2)C1"
value_observed = "35%"

[[record]]
compound = "COc1cc(C)c2[nH]ccc2c1CN1CC[C@H](OC)C[C@H]1c1ccc(C(=O)O)cc1"
value_observed = "85%"

[[record]]
compound = "CO[C@H]1CCN(Cc2c(C)cc(C)c3[nH]ccc23)[C@H](c2ccc(C(=O)O)cc2)C1"
value_observed = "43%"

[[record]]
compound = "CCO[C@H]1CCN(Cc2c(C3CC3)cc(C)c3[nH]ccc23)[C@H](c2ccc(C(=O)O)cc2)C1"
value_observed = "71%"


---

# TEST METHOD NOTES: Clearance in beagle dog at 0.1 mg/kg, iv after 15 mins to 24 hrs by HPLC-MS/MS analysis
# Assay type: ADME, organism-based, Canis lupus familiaris
# COND: in vivo
ATTRIBUTE MEASURED: clearance

[[record]]
smiles_data = "CCO[C@H]1CCN(Cc2c(OC)cc(C)c3[nH]ccc23)[C@H](c2ccc(C(=O)O)cc2)C1.Cl"
value_observed = "2 mL/min/kg"


---

# TEST METHOD NOTES: Intrinsic clearance in human liver microsomes
# Type: ADME, Microsome
# COND: read-out: CLH
ATTRIBUTE MEASURED: microsomal CLint (µL/min/mg)

[[record]]
compound = "Cc1cc(C)c2[nH]ccc2c1CN1CCCCC1c1ccc(C(=O)O)cc1 (stereo unspecified)"
value_observed = 54.1


---

# TEST METHOD NOTES: Mean residence time in C57BL/6 mouse at 1 mg/kg, iv after 5 mins to 7 hrs by HPLC-MS/MS analysis
# Assay type: ADME, organism-based
# COND: mouse, in vivo
ATTRIBUTE MEASURED: MRT

[[record]]
compound = "Cc1cc(C)c2[nH]ccc2c1CN1CCCCC1c1ccc(C(=O)O)cc1 (centres undefined)"
attribute_measured = "MRT"
value_observed = "2.3 h"

[[record]]
compound = "CO[C@H]1CCN(Cc2c(C)cc(C)c3[nH]ccc23)[C@H](c2ccc(C(=O)O)cc2)C1"
attribute_measured = "MRT"
value_observed = "2.1 h"

[[record]]
compound = "CCO[C@H]1CCN(Cc2c(C3CC3)cc(C)c3[nH]ccc23)[C@H](c2ccc(C(=O)O)cc2)C1"
attribute_measured = "MRT"
value_observed = "3.3 h"

[[record]]
compound = "CCO[C@H]1CCN(Cc2c(OC)cc(C)c3[nH]ccc23)[C@H](c2ccc(C(=O)O)cc2)C1"
attribute_measured = "MRT"
value_observed = "1.6 h"

